settings: 353.15 K; 60000 kPa; Liquid; Vibrating wire viscometry
Criterion: viscosity strictly less than 0.5 mPa·s. Met: 1. Not met: 0.

{"record_smiles": "Cc1ccc(C)c(C)c1", "class_assignment": 0}
{"record_smiles": "CCCCCCCCCCCC", "class_assignment": 0}
{"record_smiles": "CC(C)CC(C)(C)C", "class_assignment": 0}
{"record_smiles": "CCCCCCC", "class_assignment": 1}

* * *

settings: 293.15 K; 100000 kPa; Liquid; Vibrating wire viscometry

{"record_smiles": "Cc1ccccc1", "units_label": "mPa·s", "viscosity": 1.149}
{"record_smiles": "CCCCCCC", "units_label": "mPa·s", "viscosity": 0.9106}
{"record_smiles": "CC(C)CC(C)(C)C", "units_label": "mPa·s", "viscosity": 1.316}
{"record_smiles": "Cc1ccc(C)c(C)c1", "units_label": "mPa·s", "viscosity": 1.952}
{"record_smiles": "CCCCCCCCCCCC", "units_label": "mPa·s", "viscosity": 4.117}
